These entries and their values trace back to patent US10689331B2.

Please respond with reported pIC50 for every item in the list.
Biological target: human IDO1 (Homo sapiens, UniProt P14902)
Sequence (P14902 whole entry): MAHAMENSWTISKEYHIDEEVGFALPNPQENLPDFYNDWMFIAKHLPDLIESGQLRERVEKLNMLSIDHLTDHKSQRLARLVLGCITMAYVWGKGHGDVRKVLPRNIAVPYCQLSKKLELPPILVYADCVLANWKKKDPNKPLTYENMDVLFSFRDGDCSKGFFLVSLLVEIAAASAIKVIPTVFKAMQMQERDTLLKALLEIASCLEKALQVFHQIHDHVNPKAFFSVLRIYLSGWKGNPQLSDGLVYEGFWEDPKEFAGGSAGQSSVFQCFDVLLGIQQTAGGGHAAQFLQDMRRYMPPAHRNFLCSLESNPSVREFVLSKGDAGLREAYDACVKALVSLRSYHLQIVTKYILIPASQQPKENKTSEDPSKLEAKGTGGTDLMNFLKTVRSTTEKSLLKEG
Test: HEK Human IDO-1 inhibition assay (kynurenine readout, Ehrlich reagent, absorbance 490 nm)
Conditions: human IDO1/HEK293 cells, incubated 20 hours with compound; 500 nM reference standard = 100% inhibition
pIC50: −log10 of the molar value.

Task item: Tell me the measured pIC50 of CCOc1ccc(NC(=O)Nc2cc(OCC(=O)O)ccc2N(CC(C)C)C2CCC(F)(F)CC2)cc1 [Example 100] , please.
Reply: ≤ 7.00

Task item: Looking for the measured pIC50 of CC(C)CN(c1ccc(OCC(=O)O)cc1NC(=O)Nc1ccc(-c2cnco2)cc1)C1CCCCC1 [Example 14] , can you help?
Reply: ≤ 7.00

Task item: Requested read-out: pIC50. Entry: CC(C)CN(c1ncc(OCC(=O)O)cc1NC(=O)Nc1ccc(Cl)cc1F)C1CCCCC1 [Example 102]
Reply: > 8.30

Task item: Look at this compound and give its reported pIC50. COCC(Oc1ccc(N(CC(C)C)C2CCCCC2)c(NC(=O)Nc2ccc(C)cc2)c1)C(=O)O (single isomer, unassigned) [Example 90-1]
Reply: ≤ 7.00
